Cited source for all entries: paper PMC3463238

This section presents compounds with their documented activity at 3 h, 100 µM values.
# Experiment: in vitro
# Condition summary: human
Test readout: activity at 3 h, 100 µM (%)

[[record]]
smiles_input = "C=Cc1ccc(Cl)cc1"
quantitative_readout = 71.2

[[record]]
smiles_input = "C=Cc1ccc(F)cc1"
quantitative_readout = 82.4

[[record]]
smiles_input = "C=Cc1ccc(Br)cc1"
quantitative_readout = 61


* * *

# Experiment: in vitro
# Condition summary: human
Test readout: viability at 24 h, 100 µM (%)

[[record]]
compound = "C=Cc1ccc(Cl)cc1 [Cl-ST, 4-chlorostyrene]"
quantitative_readout = 57.7

[[record]]
compound = "C=Cc1ccc(F)cc1 [F-ST, 4-fluorostyrene]"
quantitative_readout = 78.8

[[record]]
compound = "C=Cc1ccc(Br)cc1 [Br-ST, 4-bromostyrene]"
quantitative_readout = 39.6

